Origin of the recorded values: patent US9980943B2

# System: β-galactosidase in CMV-LacZ C2C12 myotubes
# PROCEDURE DETAILS: CMV-LacZ secondary screen in C2C12 myotubes (β-Gal stabilizing assay)
# Type: cell-based, mouse
# TEST CONTEXT: 20 uM; C2C12 CMV-LacZ myotubes; fold relative to DMSO
# Description: In order to determine compounds that acted to stabilize β-gal in myogenic cells, a CMV-LacZ C2C12 cell line was used in a secondary screen. The EGFP gene from the pEGFP (Clontech) vector was replaced by LACZ PCR product with digests of the vector/PCR product performed using EcoRI (NEB) and NotI (NEB) and ligated using T4 DNA Ligase (NEB) following standard procedures to produce the CMV-LACZ vector. […]
Readings of CMV-LACZ in Myotubes, signal relative to DMSO for the listed molecules
// return just the number, without any unit appended

# count of solved cases: 4
[Q] Provide CMV-LACZ in Myotubes, signal relative to DMSO value for the following molecule: CCc1c(C2(O)CCCCC2)[nH]c2ncccc12
[A] 0.832

[Q] Provide CMV-LACZ in Myotubes, signal relative to DMSO value for the following molecule: CC1(C)CC(=O)C=C(Nc2ccc(C(=O)O)c(O)c2)C1
[A] 1.025

[Q] Provide CMV-LACZ in Myotubes, signal relative to DMSO value for the following molecule: COc1cc(/C=C/CN2CCN(Cc3ccc(C)o3)C(CCO)C2)ccc1O (centres unmarked)
[A] 1.1647

[Q] Provide CMV-LACZ in Myotubes, signal relative to DMSO value for the following molecule: O=c1[nH]c2ccccc2nc1-c1c[nH]c2ccccc12
[A] 0.9020

Others:
[Q] Provide CMV-LACZ in Myotubes, signal relative to DMSO value for the following molecule: O=C(NCc1ccccc1)c1csc(-c2cccnc2)n1
[A] 0.9190

* * *

# Tested on: α7 integrin (LacZ reporter in α7+/LacZ myotubes)
# PROCEDURE DETAILS: Myotube α7 integrin FDG assay (Burkin assay in myotubes, 96-well)
# Type: cell-based, mouse
# TEST CONTEXT: 0.5 uM, myotubes
ATTRIBUTE MEASURED: Burkin Assay in Myotubes (signal relative to DMSO)
// return just the number, without any unit appended

# count of solved cases: 5
[Q] Provide Burkin Assay in Myotubes (signal relative to DMSO) value for the following compound: O=C(COc1cc2oc(=O)c3c(c2cc1Cl)CCCC3)NCC1CCC(C(=O)O)CC1 (centres unmarked)
[A] 1.045

[Q] Provide Burkin Assay in Myotubes (signal relative to DMSO) value for the following compound: COCCN(CC(=O)Nc1cccc(C)c1C)C(=O)C1CCN(S(=O)(=O)c2ccccc2)CC1
[A] 1.005

[Q] Provide Burkin Assay in Myotubes (signal relative to DMSO) value for the following compound: OC1(c2ccccc2)C/C(=N\n2cnnc2)C=C1c1ccccc1 (centres unmarked)
[A] 0.7425

[Q] Provide Burkin Assay in Myotubes (signal relative to DMSO) value for the following compound: CCCCNS(=O)(=O)c1ccc2nc(-c3cccnc3)cc(C(=O)NCCOC)c2c1
[A] 0.968

[Q] Provide Burkin Assay in Myotubes (signal relative to DMSO) value for the following compound: C[C@H]1CNC(=O)c2c(C(=O)Nc3ccc(CNC(=O)OC(C)(C)C)cc3)ncn21
[A] 1.104

Others:
[Q] Provide Burkin Assay in Myotubes (signal relative to DMSO) value for the following compound: COc1ccccc1OCC(=O)Nc1cc2c(cc1C(=O)O)OCCCO2
[A] 1.047

[Q] Provide Burkin Assay in Myotubes (signal relative to DMSO) value for the following compound: O=C(Nc1ccc(N2CCN(C(=O)c3ccccc3F)CC2)cc1)c1cncc(Br)c1
[A] 0.9464

[Q] Provide Burkin Assay in Myotubes (signal relative to DMSO) value for the following compound: O=C(N/N=C/c1cn[nH]c1-c1ccc(F)cc1)c1ccncc1
[A] 0.8838

* * *

Readings of Burkin Assay in Myoblasts, signal relative to DMSO for the listed compounds
# System: α7 integrin (LacZ reporter in α7βgal+/− myoblasts)
# PROCEDURE DETAILS: Myoblast α7+/LacZ integrin FDG assay (Burkin assay in myoblasts, 96-well)
# Format: cell-based, mouse
# TEST CONTEXT: 1 uM; α7+/LacZ myoblasts, 96-well
// return just the number, without any unit appended

[Q] Provide Burkin Assay in Myoblasts, signal relative to DMSO, system α7 integrin (LacZ reporter in α7βgal+/− myoblasts), entry CC1CC(C)(C)NC(=S)N1CC(=O)N(C)Cc1ccccc1 (centres unmarked) [MLS000586245-01]
[A] 1.049

Others:
[Q] Provide Burkin Assay in Myoblasts, signal relative to DMSO, system α7 integrin (LacZ reporter in α7βgal+/− myoblasts), entry O=C(NCCc1ccccc1)C1CCC(=O)N1C1CCCC1 (centres unmarked) [MLS001200665-01]
[A] 0.8539

[Q] Provide Burkin Assay in Myoblasts, signal relative to DMSO, system α7 integrin (LacZ reporter in α7βgal+/− myoblasts), entry COc1ccc(C)cc1NC(=O)c1ccc2c(O)c(S(=O)(=O)c3ccccc3)c(=O)[nH]c2c1 [MLS001122718-01]
[A] 1.041

[Q] Provide Burkin Assay in Myoblasts, signal relative to DMSO, system α7 integrin (LacZ reporter in α7βgal+/− myoblasts), entry N/C(=N\OC(=O)c1cccc(C(F)(F)F)c1)c1cnccn1 [MLS001098105-01]
[A] 1.029

[Q] Provide Burkin Assay in Myoblasts, signal relative to DMSO, system α7 integrin (LacZ reporter in α7βgal+/− myoblasts), entry N#Cc1nc(COc2ccccc2)oc1N1CCCC1 [MLS000036988-01]
[A] 1.0825

* * *

# Tested on: α7 integrin (LacZ reporter in α7+/LacZ myotubes)
# PROCEDURE DETAILS: Myotube α7 integrin FDG assay (Burkin assay in myotubes, 96-well)
# Assay type: cell-based, mouse
# TEST CONTEXT: myotubes, 10 uM
ATTRIBUTE MEASURED: Burkin Assay in Myotubes, α7 integrin LacZ reporter signal relative to DMSO
// return just the number, without any unit appended

[Q] Provide Burkin Assay in Myotubes, α7 integrin LacZ reporter signal relative to DMSO, system α7 integrin (LacZ reporter in α7+/LacZ myotubes), entry O=C(O)CC1(c2ccccc2)C(=O)c2ccccc2C1=O [MLS000052969-01]
[A] 0.876

[Q] Provide Burkin Assay in Myotubes, α7 integrin LacZ reporter signal relative to DMSO, system α7 integrin (LacZ reporter in α7+/LacZ myotubes), entry CC1CCCCC12NC(=O)N(CC(=O)OCc1cccc(F)c1)C2=O (stereo not shown) [MLS002161350-01]
[A] 0.987

[Q] Provide Burkin Assay in Myotubes, α7 integrin LacZ reporter signal relative to DMSO, system α7 integrin (LacZ reporter in α7+/LacZ myotubes), entry O=C1CCc2cc(S(=O)(=O)Nc3ccc(C(F)(F)F)cc3)cc3c2N1CC3 [MLS001237320-01]
[A] 0.6554

Others:
[Q] Provide Burkin Assay in Myotubes, α7 integrin LacZ reporter signal relative to DMSO, system α7 integrin (LacZ reporter in α7+/LacZ myotubes), entry CC(=O)Nc1ccc(NC(=O)C/C(C)=N/NC(=O)COc2cc(C)c(Br)cc2Br)cc1 [MLS000912562-01]
[A] 0.8748

* * *

# Test system: β-galactosidase in CMV-LacZ C2C12 myotubes
# PROCEDURE DETAILS: CMV-LacZ secondary screen in C2C12 myotubes (β-Gal stabilizing assay)
# Format: cell-based, mouse
# TEST CONTEXT: 40 uM; C2C12 CMV-LacZ myotubes; fold relative to DMSO
ATTRIBUTE MEASURED: CMV-LACZ in Myotubes, signal relative to DMSO
// return just the number, without any unit appended

# count of solved cases: 3
[Q] Provide CMV-LACZ in Myotubes, signal relative to DMSO value for the following compound: Cc1[nH]c(=O)[nH]c(=O)c1S(=O)(=O)Nc1ccc(F)cc1Cl
[A] 0.9424

[Q] Provide CMV-LACZ in Myotubes, signal relative to DMSO value for the following compound: CCc1ccc(S(=O)(=O)NCCOc2cccc3cccnc23)cc1
[A] 1.1344

[Q] Provide CMV-LACZ in Myotubes, signal relative to DMSO value for the following compound: COc1ccccc1N(C(=O)CNC(=O)c1ccco1)C(C(=O)NC1CCCCC1)c1ccncc1 (stereo not shown)
[A] 1

In the following, a different compound is considered.
[Q] Provide CMV-LACZ in Myotubes, signal relative to DMSO value for the following compound: Cc1noc(C)c1COc1ccc(C(=O)NCCc2ccccn2)cc1
[A] 1.0489

* * *

# Tested on: β-galactosidase in CMV-LacZ C2C12 myotubes
# PROCEDURE DETAILS: CMV-LacZ secondary screen in C2C12 myotubes (β-Gal stabilizing assay)
# Format: cell-based, mouse
# TEST CONTEXT: 5 uM; CMV-LacZ C2C12 myotubes; 96-well format
# From the text: In order to determine compounds that acted to stabilize β-gal in myogenic cells, a CMV-LacZ C2C12 cell line was used in a secondary screen. The EGFP gene from the pEGFP (Clontech) vector was replaced by LACZ PCR product with digests of the vector/PCR product performed using EcoRI (NEB) and NotI (NEB) and ligated using T4 DNA Ligase (NEB) following standard procedures to produce the CMV-LACZ vector. […]
ATTRIBUTE MEASURED: CMV-LACZ in Myotubes (β-galactosidase activity relative to DMSO)
// return just the number, without any unit appended

# count of solved cases: 3
[Q] Provide CMV-LACZ in Myotubes (β-galactosidase activity relative to DMSO) value for the following compound: O=S(=O)(NCC(c1ccco1)N1CCOCC1)c1ccc(Cl)cc1 (centres unmarked)
[A] 0.8422

[Q] Provide CMV-LACZ in Myotubes (β-galactosidase activity relative to DMSO) value for the following compound: COc1ccc(C(=O)O/N=C(\N)c2cccc(C)c2)cc1OC
[A] 1.072

[Q] Provide CMV-LACZ in Myotubes (β-galactosidase activity relative to DMSO) value for the following compound: CC(=O)Nc1ccc(NC(=O)[C@@H](NC(=O)c2cccc(C)c2)C(C)C)cc1
[A] 1.009

Others:
[Q] Provide CMV-LACZ in Myotubes (β-galactosidase activity relative to DMSO) value for the following compound: Cc1nnc(NC(=O)CSc2nnc(CCNC(=O)c3ccccc3F)n2C)s1
[A] 0.9613

[Q] Provide CMV-LACZ in Myotubes (β-galactosidase activity relative to DMSO) value for the following compound: O=C(Nc1ccc(N2CCN(C(=O)c3ccccc3F)CC2)cc1)c1cncc(Br)c1
[A] 0.8358

[Q] Provide CMV-LACZ in Myotubes (β-galactosidase activity relative to DMSO) value for the following compound: O=c1[nH]c(C2CCCN(S(=O)(=O)c3ccccc3)C2)nc2c1nnn2Cc1cccc(Cl)c1 (centres unmarked)
[A] 0.9599

[Q] Provide CMV-LACZ in Myotubes (β-galactosidase activity relative to DMSO) value for the following compound: N/C(=N\OC(=O)COc1cc(Cl)c(Cl)cc1Cl)c1ccncc1
[A] 0.9172

[Q] Provide CMV-LACZ in Myotubes (β-galactosidase activity relative to DMSO) value for the following compound: O=C(NCc1ccccc1)C(c1ccc(O)cc1)N(C(=O)Cn1nnc(-c2cccs2)n1)c1ccc2c(c1)OCCO2 (centres unmarked)
[A] 0.9353
